Reported protein stability index values for the following sequences.
Experiment: protein stability index of a GFP-peptide fusion (GPS, HEK-293T) (PSI 1-6); higher = more stable;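 also: 24-mer peptide tiles fused after GFP, lentivirally expressed, FACS-sorted into six equal bins by GFP/DsRed ratio, decoded by Illumina sequencing, PSI is the read-weighted mean bin number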
Details: treatment: DMSO; c terminus: a fixed tail appended

Please review the following examples before continuing.
# Sequence Content, Result
measured = [
    ("QTGEWQNIAIMTEEPELSPAYLIS [GFOD1]", 3.05),
    ("DPEEAIRHDVIVSIVTAAKKDILL [PDS5B]", 2.3),
    ("QETPYLVKLPLPAERVTLADFKGV [DVL3]", 3.25),
]

Look up protein stability index: RAFAQIGPARSGFRLETLAGLRSR [MIR22HG]
3.23

Thanks! And VGVRMRDVKCYQGTDIVRGCDPLV [ADAMTSL2] ?
3.01

Thanks! And LDYTADEDGVWYSVAPMNVRRGLA [KLHL12] ?
2.41

Thanks! And SLCNLEESITSAGRDDLESFQLEI [FAM98B] ?
3.26

Thanks! And WTLKLDGNLQLDCLAQGWKQYQQR [RTP4] ?
2.2

Thanks! And AQTTSEAAMEGATLDQTTSEEAPG [HDAC6] ?
5.64

Thanks! And GQIIKDIDSGSPAEEAGLKNNDLV [PDZK1] ?
5.31

Thanks! And ESACSSDSLDEARSSGSEGTPADT [PWWP2B] ?
5.7

Thanks! And LKMSYSRGLIPVKRGPSSRSGGPP [RBMY1A1] ?
2.95

---

Assay: protein stability index of a GFP-peptide fusion (GPS, HEK-293T) (PSI 1-6); higher = more stable
Conditions: treatment: DMSO; c terminus: a fixed tail appended
Quantity Name: protein stability index

Please review the following examples before continuing.
# Sequence Content, Result
records = [
    ("SLGSALKPGEGRSALFAGNEWRRP [TRIM29]", 3.46),
    ("VYDQAVSIFYDLPQGSGFCLGQLN [SMAD6]", 2.03),
]

Look up protein stability index: ITCVSGAIVDLISRQYDKFLTHFI [FBXO33]
2.85

Thanks! And LKSLDKEISEAFTSTGFDRHTSPV [BCL2L13] ?
3.98

Thanks! And FGGVIAFSSYNKQDNNCHFDAALV [SLC6A17] ?
2.42

Thanks! And GIFPLSFVKILKDFPEEDDPTNWL [NCF4] ?
2.6

Thanks! And AKNLQEAEEWYKSKYADLSDAANR [PRPH] ?
4.43

Thanks! And LPHPGLQVATSPDFDGKLKDIAGE [ATL3] ?
4.91

Thanks! And GDWARLLEQMGALAVRGSRREREL [ZBED3] ?
3.13

Thanks! And SSSYSPETFRQQFRQFGYQDSPGP [ZNF396] ?
3.48

Thanks! And MGHCCCKPYNCLQCLDKTNESALV [MTUS2] ?
3.28

Thanks! And SDHEMREEEKLKAEEIRIKGKYNI [KCNK9] ?
5.11

Thanks! And KVSEGQADIMISFVRGDHRDNSPF [MMP1] ?
3.1

---

Experiment: protein stability index of a GFP-peptide fusion (GPS, HEK-293T) (PSI 1-6); higher = more stable
Conditions: treatment: MLN4924 1 uM, 8 h; c terminus: native
Reported protein stability index values for the following sequences.
Lab note: jot the number down without any unit.

Please review the following examples before continuing.
# Sequence Content, protein stability index
data = [
    ("GGSRGAPGLLMAVGQDLYCYSYS [DCAF4]", 3.1),
    ("AFADIIHSLKESGQLWLDAYLHQ [FADS1]", 2.49),
    ("GNSTQATVRDAVVGRPSMDKKAQ [ATL3]", 5.21),
]

Consider the record given below.
Look up protein stability index: TLAGLRSRRLKQPKAFCLRDVAP [MIR22HG]
2.99

---

Test: protein stability index of a GFP-peptide fusion (GPS, HEK-293T) (PSI 1-6); higher = more stable
Conditions: treatment: DMSO; c terminus: a fixed tail appended
Each entry gets No if its protein stability index stays under 4, and Yes if its protein stability index is 4 or above.

Below are worked cases with known answers.
# Sequence Content, Qualitative Label
records = [
    ("ETREYAPPSRGHGYRDYGHSRRHE [RBMY1A1]", "Yes"),
    ("QYVYIAVMDYLPISSTSTKRTYWP [PLD5]", "No"),
    ("ELFYRVNYIGTKNVIETCKEAGVQ [NSDHL]", "No"),
    ("LEHVRALIKKYSDHLENVSKLVES [TRIM55]", "No"),
]

Identify whether the reported protein stability index of the following sequence is 4 or greater: CLSCRLFYFKLTDLYKKVKKNSSP [CRY1]
No

Thanks! And LASHLPVGVMLPHNTTEAPGPHSA [ZC2HC1C] ?
Yes

---

Assay: protein stability index of a GFP-peptide fusion (GPS, HEK-293T) (PSI 1-6); higher = more stable
Conditions: treatment: MLN4924 1 uM, 8 h; c terminus: a fixed tail appended
Please assign a class to every record based on measured protein stability index, with ranges low: < 3; mid: ≥ 3 and < 4; high: ≥ 4

Below are worked cases with known answers.
# Sequence Content, Qualitative Label
records = [
    ("KKTMSTFHNLVSLNLNYNCISDEL [FBXO39]", "low"),
    ("PFIVFGATGLTSGLLSLLLPETLN [SLC22A15]", "mid"),
    ("KAMESQRAYRFVQGKDWGFKKFIR [SPOPL]", "low"),
    ("APLGYKEPERQVQHEESTEGEADH [UFD1]", "high"),
    ("SSSSGVLMVGPNFRVGKKIGCGNF [CSNK1G3]", "low"),
    ("FETQLKTLCQFPETLLGDPKRRMR [KCNA3]", "mid"),
]

Lab note: sort FGHVMHQICAQVSFFFPPVNLPIS [NLN] into the matching protein stability index band.
mid

Thanks! And RYSCESRIRSYLREVSSYPSTVGA [DFFB] ?
low

Thanks! And FRLPGLSRREREPEPPAAVDFLEP [FCHO1] ?
high

Thanks! And PLVLTEVLFNEKIREQIKKYRRHF [EIF5] ?
low

Thanks! And TGPAWNVLMWTMLFLGQGIQVSLY [SOAT2] ?
mid

Thanks! And FLVSTHTGEVRTARALLEDDSDTQ [PCDHGC5] ?
high

Thanks! And KKLEKYLQKLSALLMTADILAETG [ELOA2] ?
low

Thanks! And DLLFIVDTMLEEVENKEKDSNMPH [CEP70] ?
low

Thanks! And AGKALVISGREVFEFRPELVNDDD [ZC3H15] ?
high

Thanks! And FLYVTGHIKEILITAGGENVPPIP [ACSBG2] ?
low

Thanks! And ADSEQADIARMLYKDTCHELDELQ [ZMYND11] ?
high

Thanks! And LKDWEHSIALRNISLAKGPPGPKG [SCARA5] ?
mid

Thanks! And GGDKLETMPLYLEDDIRPDIKDDI [SCD] ?
high

Thanks! And PGHIGPPGPTGPKGISGHPGEKGE [EMID1] ?
high

Thanks! And GEVLSYLELAQFHNAHQLAAWCLH [RHOBTB1] ?
low

Thanks! And LQAALQVLELHHSKLDTTKALNLL [VPS39] ?
low

Thanks! And YWTKYYDFKNPIIEKYLRRQLTKP [OAS1] ?
low

Thanks! And ELRTAKDSDDDDDVAVTVDRDRFM [STX1A] ?
high

---

Assay: protein stability index of a GFP-peptide fusion (GPS, HEK-293T) (PSI 1-6); higher = more stable
Conditions: treatment: DMSO; c terminus: a fixed tail appended
Quantity Name: protein stability index
Lab note: jot the number down without any unit.

# Sequence Content, Result
rows = [
    ("IFSQSSALILHQRIHSGKKPYACD [ZNF396]", 2.32),
    ("RYSGKILKNNETLVQHGVKPQEIV [IQUB]", 3.42),
    ("EGRLERRECGLAAPRFSFNDPSGS [IRX6]", 3.79),
]

Look up protein stability index: HPTPFLAFLRRVKTCNPPDAGPMV [PTPRD]
2.37

Thanks! And DPKITCKQECLITTFQDVYFVSES [TPH1] ?
2.5

---

Assay: protein stability index of a GFP-peptide fusion (GPS, HEK-293T) (PSI 1-6); higher = more stable
Conditions: treatment: DMSO; c terminus: a fixed tail appended
Reported protein stability index values for the following sequences.
Lab note: jot the number down without any unit.

# Sequence Content, protein stability index
records = [
    ("STHQEAENEKDRADQTVLTEDEKK [CHGB]", 5.35),
    ("YSAAALQEAMKRLRGAKAFRLPGL [FCHO1]", 2.3),
    ("GMESYQEVTVQRNCCLTLCNFSIP [ZER1]", 2.41),
    ("PLLKMDLNSEQAEQLERINDALSC [FAM98B]", 4.29),
    ("YSIQERRPQLPQVLQHVRLPLLSP [KLHL20]", 3.4),
    ("SPPDQPAVPHPPPSTPIKLEEGDG [ADD1]", 5.56),
]

Look up protein stability index: ELRTAKDSDDDDDVAVTVDRDRFM [STX1A]
5.37

Thanks! And FFAFLHCWLNAFAEMLRFGDRMFY [SOAT2] ?
3.14
